The values you see were collected from paper PMC2756588.

Target: T1, Bud14, P27637
T1 sequence (P27637 247-328, looked up): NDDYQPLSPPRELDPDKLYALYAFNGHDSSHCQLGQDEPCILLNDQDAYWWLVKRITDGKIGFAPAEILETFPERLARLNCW
Experiment: SPOT array
Details: median of control spots 956
Strictly below 10 in SPOT intensity: 1. Otherwise: -1.

{"BINDER": "RVTRKRPREPKSTND", "ASSIGNED LABEL": 1}
{"BINDER": "PHNPSPFFPPPDFND", "ASSIGNED LABEL": 1}
{"BINDER": "RKNRAPPQRPRFNRD", "ASSIGNED LABEL": -1}
{"BINDER": "VFQFQMPTTPISTKM", "ASSIGNED LABEL": 1}
{"BINDER": "AKDLIVPRRPEWNEG", "ASSIGNED LABEL": -1}
{"BINDER": "VLRFLGFPLPIFEKG", "ASSIGNED LABEL": -1}
{"BINDER": "LTRRFPFLFPFDTRM", "ASSIGNED LABEL": -1}
{"BINDER": "NIKVLLNPKLGKPVK", "ASSIGNED LABEL": -1}
{"BINDER": "KMSRSPPRPPSLKII", "ASSIGNED LABEL": 1}
{"BINDER": "STPQTMRQAPKRPDA", "ASSIGNED LABEL": 1}
{"BINDER": "NLKKRPPTAPQRKIS", "ASSIGNED LABEL": -1}
{"BINDER": "NFKRLLPRDPSEKSS", "ASSIGNED LABEL": -1}
{"BINDER": "KRRTSLFPWLHKPGI", "ASSIGNED LABEL": 1}
{"BINDER": "DLFKPLPEPPTELGR", "ASSIGNED LABEL": 1}
{"BINDER": "LLIRWLILMPLVGSR", "ASSIGNED LABEL": -1}
{"BINDER": "FPGKKSPRLPHRNKK", "ASSIGNED LABEL": -1}
{"BINDER": "KWVRRPKLMTPLTFS", "ASSIGNED LABEL": -1}
{"BINDER": "VPVAPPPPPASLGQS", "ASSIGNED LABEL": 1}
{"BINDER": "NSVPIMPTLPPRPYI", "ASSIGNED LABEL": 1}
{"BINDER": "YLTRPLPSTPNEDSR", "ASSIGNED LABEL": 1}
{"BINDER": "WRPRIVPILPYITRL", "ASSIGNED LABEL": 1}
{"BINDER": "LRIKRKPVQTFFEFI", "ASSIGNED LABEL": -1}
{"BINDER": "QGYPRQPQRPQRYHP", "ASSIGNED LABEL": 1}
{"BINDER": "SSSSTPPTLPPRRIE", "ASSIGNED LABEL": 1}
{"BINDER": "YVRRRPRVRLEPLLS", "ASSIGNED LABEL": -1}
{"BINDER": "PPIPIVPSSPAPPLP", "ASSIGNED LABEL": 1}
{"BINDER": "DKSRPPRPPPKPLHL", "ASSIGNED LABEL": 1}
{"BINDER": "DLPLPDLPPEPPTEL", "ASSIGNED LABEL": 1}
